- Tested on: K562
- Experiment notes: NCI tumour cell line growth inhibition, 48 h
Active and inactive are the calls of the source. Rule as the data show it: active = GI50 up to about 1.1 µM and inactive = higher. Where a SMILES comes first, the peptide text is derived from it. The star is where a group is joined. X33 = O=C(c1ccc(-c2ccc(Cl)cc2Cl)o1)*
Labels: 1.0 for active, 0.0 for inactive

C=CCN1C(=O)/C(=C/c2ccc(C)cc2)N=C1SC/C=C/C    0.0
CC1=C(C(=O)OC(C)C)C(c2cccc([N+](=O)[O-])c2)C(C(=O)OC(CO[N+](=O)[O-])CO[N+](=O)[O-])=C(C)N1 (configuration not stated)    0.0
CC(=O)Nc1[nH]n(C)c(=O)c1-c1nnc(C)s1    0.0
CCOc1cc2c(cc1O)/C(=N\N)C[C@@H]1[C@@H]2CC[C@]2(C)[C@@H](O)CC[C@@H]12    1.0
CCC(C)C(NC(=O)CNC(=O)C(Cc1ccccc1)NC(=O)C1CCCN1C(=O)c1ccc(-c2ccc(Cl)cc2Cl)o1)C(=O)OC (configuration not stated) (X33-PFGI-OMe; configuration not given here)    0.0
COC(=O)C1C(C(=O)OC)C2C(=O)C3C(C(=O)OC)C(C(=O)OC)C3C(=O)C12 (configuration not stated)    0.0
NC(=O)c1c(-c2ccccc2)c(-c2ccccc2)cc2c(=O)c3ccccc3[nH]c12    0.0
C/C(=N\Nc1ccccc1)C(CN(C)C)C(c1ccccc1)c1c(O)c2ccccc2oc1=O (configuration not stated)    0.0
Cn1cc(C(=O)C[n+]2ccccc2)c2ccccc21    0.0
Cc1nc2c(=O)n(-c3ccccc3)c(=O)n(-c3ccccc3)c2o1    0.0
O=C(Nc1cc2c(=O)oc3ccccc3c2oc1=O)c1cccnc1    0.0
NCCCn1c2ccccc2c2c3c(c4c(c21)CCC(O)CC4)C(=O)NC3=O (configuration not stated)    1.0
O=c1cc(NCC2CCCCC2)[nH]c(=O)[nH]1    0.0
O=C1Nc2cccc(C(F)(F)F)c2/C1=N/Nc1ccccc1[N+](=O)[O-]    0.0
Cn1c(=O)sc2cc(C(=S)N3CCC(Cc4ccccc4)CC3)ccc21    0.0
Cc1[nH]c2ccccc2c1C(=O)CC1(O)C(=O)Nc2c(Cl)cc(Cl)cc21 (configuration not stated)    0.0
O=C(Cc1ccc(O)c(O)c1)NCc1c[nH]c2ccccc12    0.0
O=C(N/N=C(\c1nc2ccc(Cl)cc2nc1O)C(O)c1ccccc1Cl)c1ccncc1 (configuration not stated)    0.0
C1=CC=C2NCCSCC/N=C3/C=CC=CC=C3NCCSCC/N=C\2C=C1    0.0
CCOC(=O)n1c2ccccc2c2c(O)c(OC)c3c(c21)C(=O)NC3=O    0.0
[O-][Cl+3]([O-])([O-])O.c1ccc(/N=c2\snc(-c3ccccc3)s2)cc1    0.0
CC(C)(C)c1cc(C(C)(C)C)c2c(c1O)OC(=O)CS2    0.0
Clc1ccc(C2=Cc3nc2c(-c2ccccc2)c2ccc([nH]2)c(-c2ccccc2)c2nc(c(-c4ccccc4)c4ccc([nH]4)c3-c3ccccc3)C=C2)cc1    0.0
N#Cc1cnn2ccn(C3OC(COC(=O)c4ccccc4)C(OC(=O)c4ccccc4)C3OC(=O)c3ccccc3)c12 (configuration not stated)    0.0
NC(=O)CC(N)C(=O)NC(Cc1ccccc1)C(=O)NC(Cc1ccccc1)NC(=O)C(Cc1c[nH]c2ccccc12)C(=O)O (configuration not stated)    0.0
c1ccc(-c2cnc3nc4ccccc4nc3n2)cc1    0.0
S=C(N/N=C(/c1ccccc1)c1ccccn1)N1CCCCCC1    1.0
CCOC(=O)C1CC(C(=O)c2ccccc2)N2c3ccccc3-c3ccccc3C12 (configuration not stated)    0.0
CSc1[nH]nc(N)c1C(=O)Nc1ccccc1    0.0
C=C1C(OC(C)=O)CC(OC(C)=O)C2(C)C(OC(C)=O)C(OC(C)=O)C3=C(C)C(OC(=O)/C=C/c4ccccc4)CC(C(OC(C)=O)C12)C3(C)C (configuration not stated)    0.0
COc1ccc(-c2c3ccccc3c(-c3ccc(OC)cc3)c3ccccc23)cc1    0.0
C=C1C(=O)OC2/C=C(\C)CC(O)/C=C(/CO)CC(OC(=O)/C(C)=C/C)C12 (configuration not stated)    0.0
CN(C)CCCc1cccnc1    0.0
Cc1c(N)nc(C(CC(N)=O)NCC(N)C(N)=O)nc1C(=O)NC(C(=O)NC(C)C(O)C(C)C(=O)NC(C(=O)NCCc1nc(-c2nc(C(=O)NCCCNCCCCN)cs2)cs1)C(C)O)C(OC1OC(CO)C(O)C(O)C1OC1OC(CO)C(O)C(OC(N)=O)C1O)c1c[nH]cn1 (configuration not stated)    0.0
COc1cc(C=O)ccc1Oc1nnnn1-c1ccccc1    0.0
COC(=O)/C=C(\S/C(=C(/c1ccccc1)n1cc(C(=O)OC)c(C(=O)OC)n1)c1ccccc1)C(=O)OC    0.0
Cc1ccc(S(=O)(=O)Nc2cccc(C)c2C)cc1    0.0

----------
- Tested on: EKVX
- Experiment notes: NCI tumour cell line growth inhibition, 48 h
Active and inactive are the calls of the source. Cut-off read from the data, not from the text of the source: active = GI50 up to about 1.1 µM and inactive = higher.
Here the recorded GI50 is given for each entry.
Outcome measure: GI50

O=C1OC(=O)C2C3C=CC(C12)C1C2C=CC2C31 (stereo not given)    > 100 µM (inactive)
C=C1C(=O)O[C@H]2C1[C@H](OC(=O)/C(C)=C\COC(C)=O)C[C@]1(CO1)[C@@H]1[C@H](O)[C@H]3O[C@@]3(C)[C@@H]12 (stereo not given in full)    26.3 µM (inactive)
COC(=O)CCC1=NOC(CC2CC(CCC(=O)OC)=NO2)C1 (stereo not given)    > 100 µM (inactive)
N/C(=N\N=C\c1cc2ccccc2s1)c1cnccn1    > 100 µM (inactive)
N=C(N)NS(=O)(=O)c1ccc(NC(=O)c2ccc3nc4ccccc4c(Nc4ccc(S(=O)(=O)N=C(N)N)cc4)c3c2)cc1    > 100 µM (inactive)
CCCN(CCCCC(NC(C)=O)C(=O)NCc1ccccc1)C(=O)NC (stereo not given)    > 100 µM (inactive)
COC(=O)C(C#N)C1NC(=O)c2ccccc21 (stereo not given)    > 100 µM (inactive)
O=[N+]([O-])/C=C/COCc1cc2c(cc1Br)OCO2    20.1 µM (inactive)
O=c1cc(-c2ccccc2)oc2cc(OCCCOc3ccc4c(=O)cc(-c5ccccc5)oc4c3)ccc12    > 100 µM (inactive)
Cn1nc2ccc3nccc(NCCNCCCl)c3c2n1    > 100 µM (inactive)

----------
- Tested on: OVCAR-5
- Experiment notes: NCI tumour cell line growth inhibition, 48 h
Activity calls are given as the source filed them. No stated cut-off is given here; in the data, active = GI50 up to about 1.1 µM and inactive = higher.
Labels: yes = active, no = inactive

Nc1ncnc2c1nnn2C1C=CC(CP(=O)(O)O)C1 (stereo unspecified)    no
Cc1c(-c2nc(N)c(C#N)c(N)c2C#N)c(=O)oc2ccccc12    no
S=C(N/N=C(/c1ccccc1)c1ccccn1)N1CCCCCC1    yes
CC(=O)N(C(C)=O)c1cc2c3c(c1)CCCN3CCC2    no
CC(=O)/N=C1/N(/C=C2\C(=O)Oc3ccccc3C2=O)C(=O)/C(=C/c2ccccc2Cl)N1C    no
NC1C2(CCCCCC2)NC(=O)C12CCCCCC2 (stereo unspecified)    no
COC(=O)[C@@H]1C[C@]2(CC=C(C)C)c3ccccc3N(S(=O)(=O)c3ccccc3)[C@@H]2N1C(=O)OC    no
N#CC1=C(N)OC(c2cccc([N+](=O)[O-])c2)C1(C#N)C#N (stereo unspecified)    no
C1=Cc2cccc3occ(c23)C=C1    no
Cc1noc(/N=C2\C=C(O)C(=O)c3ccccc32)c1C    no
CCOC(=O)C1(Cc2ccc(C)cc2)Cc2ccc(C)cc2C1=O (stereo unspecified)    no

----------
- Test system: U-251
- Experiment notes: NCI tumour cell line growth inhibition, 48 h
Where a name gives a salt, the structure may show the parent alone. Calls of active or inactive are those of the source. Cut-off read from the data, not from the text of the source: active = GI50 up to about 1.1 µM and inactive = higher.
Here the recorded GI50 is given for each entry.
Outcome measure: GI50

O=C(NC1=C(Cl)C(=O)c2ccccc2C1=O)C(=O)c1c(O)c2ccccc2oc1=O    5.74 µM (inactive)
COc1cc([N+](=O)[O-])ccc1NC(=O)C(F)(F)F    > 100 µM (inactive)
Cc1nc(-c2cccnc2)sc1C(=O)/C=C/c1cccc([N+](=O)[O-])c1    > 100 µM (inactive)
NCCCn1c2ccccc2c2c3c(c4c(c21)CCC(O)CC4)C(=O)NC3=O (stereo unspecified)    1.75 µM (inactive)
CCOc1c(OC)cc(CNNc2nccs2)cc1OC    32.7 µM (inactive)
N#CN1CC[C@@H]2CC3(CCC2C1)OCCO3 (stereo partly specified)    > 100 µM (inactive)
O=C(c1ccccc1)C1OC12C(=O)Nc1c(Cl)cc(Cl)cc12 (stereo unspecified)    41.5 µM (inactive)
O=c1c(Cc2ccccc2)c(-c2ccccc2)[nH]n1C1=NCCN1    33.6 µM (inactive)
Nc1ncnc2c1nnn2C1C=CC(CP(=O)(O)O)C1 (stereo unspecified)    > 100 µM (inactive)
CCCCCCCCCC(=O)OCC1(CO)C/C(=C/CC(C(C)C)C(C)C)C(=O)O1 (stereo unspecified)    26.7 µM (inactive)
NCCCCN [PUTRESCINE HYDROCHLORIDE]    > 100 µM (inactive)
